Data origin, for the record: patent US11884627B2

# pIC50 per entry
# TARGET_DESC: human LPA1 (Homo sapiens, UniProt Q92633)
# Construct: expressed in transfected cells; host or cells: CHO-K1
# Sequence (Q92633 whole entry): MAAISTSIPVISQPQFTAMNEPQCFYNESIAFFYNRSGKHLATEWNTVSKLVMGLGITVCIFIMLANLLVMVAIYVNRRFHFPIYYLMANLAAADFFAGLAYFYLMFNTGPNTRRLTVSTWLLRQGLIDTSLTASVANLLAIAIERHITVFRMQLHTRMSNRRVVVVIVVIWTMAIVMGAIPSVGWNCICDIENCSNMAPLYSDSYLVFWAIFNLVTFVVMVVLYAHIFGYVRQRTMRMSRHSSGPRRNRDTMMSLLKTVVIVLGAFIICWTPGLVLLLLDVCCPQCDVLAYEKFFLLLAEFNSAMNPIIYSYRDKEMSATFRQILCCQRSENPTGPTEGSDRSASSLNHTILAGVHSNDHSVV
# ASSAY_TEXT: In vitro LPA1 calcium flux antagonist assay - Bioduro protocol
# Format: cell-based
# ASSAY_CONDITIONS: CHO-K1 cells overexpressing human LPA1 and G15a; LPA challenge at EC80; calcium mobilization on FLIPR Tetra; read-out: IC50
pIC50 is defined as minus the log10 of a concentration measured in mol/L.

Please review the following examples before continuing.
In [3]: df
Out[3]:
                                   molecule  assay_endpoint  value_observed
0  COc1cc(OC)c(Cl)c(-c2c(F)cc(NC3(C(=O)O)CCOCC3)cc2COC2CCCC2)c1 [Compound 174]           pIC50            7.53
1  CCOc1cc(OC)cc(-c2ccc(NC3(C(=O)O)CCCCC3)cc2COC2CC2)c1F [Compound 357]           pIC50            7.52

Here is another molecule to look at.
In: Report pIC50 on human LPA1 (Homo sapiens, UniProt Q92633) for this entry: COc1cc(-c2ccc(NC3(C(=O)O)CCOCC3)cc2COC2CCCC2)c(Cl)c(OC)n1 [Compound 207]
Out: 7.52
